MEASURED_QUANTITY: melting point

Some solved cases for reference:
INSERT INTO measurements (molecule, value_measured) VALUES
  ('C[C@H](NC(=O)OC(C)(C)C)c1ccc(N/C(=C2\C(=O)Nc3ccc([N+](=O)[O-])cc32)c2ccccc2)cc1 [Example 123]', '247 to 249 °C (dec.)'),
  ('CCOC(=O)CNS(=O)(=O)c1ccc(N/C(=C2\C(=O)Nc3ccc([N+](=O)[O-])cc32)c2ccccc2)cc1 [Example 410]', '247 to 249 °C'),
  ('NCc1ccc(/C(Nc2ccccc2)=C2/C(=O)Nc3ccc([N+](=O)[O-])cc32)cc1 [Example 154]', '332 °C (dec.)'),
  ('CC(=O)Nc1ccc(N/C(=C2\C(=O)Nc3ccc([N+](=O)[O-])cc32)c2ccccc2)cc1 [Example 93]', '328 to 330 °C'),
  ('CCCC(=O)N(CCN1CCOCC1)c1ccc(N/C(=C2\C(=O)Nc3ccc([N+](=O)[O-])cc32)c2ccccc2)cc1 [Example 337]', '228 °C');

[Q] Quick check: melting point of CC(=O)NCCC(=O)N(C)c1ccc(N/C(=C2\C(=O)Nc3ccccc32)c2ccccc2)cc1 [Example 378] ?
[A] 187 to 189 °C

[Q] Quick check: melting point of CC(=O)Nc1cccc(N/C(=C2\C(=O)Nc3ccc([N+](=O)[O-])cc32)c2ccccc2)c1 [Example 89] ?
[A] 318 to 320 °C (dec.)
